Every entry's value here was drawn from patent US20160264593A1.

experiment: Pharmacokinetic study of 153 (and metabolite endothal) in SD rats, iv and po; plasma, liver, brain; assay type: in vivo; conditions: female, SD, rat, in vivo, po, 1.25 mg/kg, PO per title, 1.25 mg/kg, 1 hr, Rat 2; read-out: 153 liver concentration
MEASUREMENT_KIND: concentration at 1 h (ng/g)
Expressed in ng/g, but write only the number.

// returns reported concentration at 1 h for input CCCOC(=O)C1C2CCC(O2)C1C(=O)N1CCN(C)CC1 (stereo not shown)
121

* * *

Assay: Pharmacokinetic study of 153 (and metabolite endothal) in SD rats, iv and po; plasma, liver, brain
Assay type: in vivo
Settings: female, SD, in vivo; 153 in plasma, IV 1.25 mg/kg, rat 1; read-out: Tmax
Method: The blood, liver and brain tissue samples were collected at predetermined times from rats. […] Compound were diluted shortly before use in 4% sodium bicarbonate for sterile injection (this is the standard pediatric solution of NaHCO3 with a pH of about 8.5). Compound 153 was freshly prepared by diluting the drugs shortly before use in 4% sodium bicarbonate for sterile injection (this is the standard pediatric solution of NaHCO3 with a pH of about 8.5). […]
MEASUREMENT_KIND: Tmax (min)
Expressed in min, but write only the number.

// returns reported Tmax for input CCCOC(=O)C1C2CCC(O2)C1C(=O)N1CCN(C)CC1 (stereo not shown)
15

* * *

test: Pharmacokinetic study of 153 (and metabolite endothal) in SD rats, iv and po; plasma, liver, brain; assay type: in vivo; conditions: female, SD, rat, in vivo, po, 1.25 mg/kg, PO per title, 1.25 mg/kg, 0.25 hr, Mean; read-out: 153 liver concentration
MEASUREMENT_KIND: concentration at 0.25 h (ng/g)
Expressed in ng/g, but write only the number.

// returns reported concentration at 0.25 h for input CCCOC(=O)C1C2CCC(O2)C1C(=O)N1CCN(C)CC1 (stereo not shown) [Compound 153]
762

* * *

test: in vivo; conditions: female, SD, rat, in vivo, iv, 1.5 mg/kg
MEASUREMENT_KIND: AUC(0-inf) (ng·h/mL)
Expressed in ng·h/mL, but write only the number.

// returns reported AUC(0-inf) for input CN1CCN(C(=O)C2C3CCC(O3)C2C(=O)O)CC1 (stereo not shown)
8640

* * *

experiment: Pharmacokinetic study of 153 (and metabolite endothal) in SD rats, iv and po; plasma, liver, brain; format: in vivo; conditions: female, SD, rat, in vivo, iv, 1.25 mg/kg, 153 in plasma, IV 1.25 mg/kg, rat 1; read-out: T1/2 (converted)
MEASUREMENT_KIND: half-life (min)
Expressed in min, but write only the number.

// returns reported half-life for input CCCOC(=O)C1C2CCC(O2)C1C(=O)N1CCN(C)CC1 (stereo not shown) [Compound 153]
54.4

* * *

experiment: in vivo; conditions: male, Sprague-Dawley (SD), rat, in vivo, iv, 1 mg/kg, Plasma Concentration of 100
MEASUREMENT_KIND: concentration at 2 h (ng/mL)
Expressed in ng/mL, but write only the number.

// returns reported concentration at 2 h for input CN1CCN(C(=O)C2C3CCC(O3)C2C(=O)O)CC1 (stereo not shown) [Compound 100]
125

* * *

experiment: Pharmacokinetic study of 157 (and metabolite endothal) in SD rats, iv and po; plasma, liver, brain; assay type: in vivo; details: female, Sprague-Dawley (SD), rat, in vivo, iv, 1.5 mg/kg, 157 in Liver, iv 1.5 mg/kg, Mean; read-out: MRT (0-t)
MEASUREMENT_KIND: MRT last (min)
Expressed in min, but write only the number.

// returns reported MRT last for input CCCCCCCOC(=O)C1C2CCC(O2)C1C(=O)N1CCN(C)CC1 (stereo not shown)
35.3
